Listed here are molecules together with their documented response vs control in vivo at 3.5 mg/kg.
System: SNL model
Assay: Antiallodynic activity in the Chung model (SNL, Spinal Nerve Ligation; von Frey)
Assay type: in vivo, Sprague-Dawley rats
Details: Rattus norvegicus, po, read-out: SNL model: effect (%) compared to control, rat, oral, 3.5 mg/kg administered, time not given

>  <Molecule>
CC1(C)Oc2ccc(Cl)cc2[C@H](COS(N)(=O)=O)O1

>  <response vs control in vivo at 3.5 mg/kg [%]>
20.9

$$$$
>  <Molecule>
[NH-]S(=O)(=O)OC[C@@H]1OC2(CCCC2)Oc2ccccc21.[Na+]

>  <response vs control in vivo at 3.5 mg/kg [%]>
22.5

$$$$
>  <Molecule>
[NH-]S(=O)(=O)OCC1OC2(CCCC2)Oc2ccc(Cl)cc21.[Na+] (centres unmarked)

>  <response vs control in vivo at 3.5 mg/kg [%]>
49.1

$$$$
>  <Molecule>
CC1(C)Oc2ccc(Cl)cc2[C@@H](COS([NH-])(=O)=O)O1.[Na+]

>  <response vs control in vivo at 3.5 mg/kg [%]>
32.6

$$$$
>  <Molecule>
CC1(C)Oc2ccc(Cl)cc2C(COS([NH-])(=O)=O)O1.[Na+] (centres unmarked)

>  <response vs control in vivo at 3.5 mg/kg [%]>
32.9

$$$$

###

Test system: Post operation-induced pain model
Assay: Antiallodynic activity on post operative pain-induced pain model (von Frey)
Type: in vivo, Sprague-Dawley rats
Settings: Rattus norvegicus, ip, 0.5 h, read-out: Post Operation: ED50 mg/kg

>  <Molecule>
[NH-]S(=O)(=O)OC[C@H]1OC2(CCCC2)Oc2ccccc21.[Na+]

>  <Scale unit>
mg/kg

>  <ED50>
31.8

$$$$
>  <Molecule>
CC1(C)Oc2ccccc2[C@@H](COS([NH-])(=O)=O)O1.[Na+]

>  <Scale unit>
mg/kg

>  <ED50>
10.9

$$$$
>  <Molecule>
CC1(C)Oc2ccccc2C(COS([NH-])(=O)=O)O1.[Na+] (stereo not shown)

>  <Scale unit>
mg/kg

>  <ED50>
18.9

$$$$
>  <Molecule>
CC1(C)Oc2ccccc2[C@H](COS([NH-])(=O)=O)O1.[Na+]

>  <Scale unit>
mg/kg

>  <ED50>
19.4

$$$$

###

>  <Molecule>
CC1(C)Oc2ccc(Cl)cc2C(COS([NH-])(=O)=O)O1.[Na+] (centres unmarked) [Example 63]

>  <melting point>
129.3 to 132.3 °C

$$$$
>  <Molecule>
[NH-]S(=O)(=O)OCC1OC2(CCCC2)Oc2ccccc21.[Na+] (centres unmarked) [Example 66]

>  <melting point>
145.5 to 148.9 °C

$$$$
>  <Molecule>
CC1(C)Oc2ccc(Cl)cc2[C@@H](COS([NH-])(=O)=O)O1.[Na+] [Example 62]

>  <melting point>
133.8 to 135.3 °C

$$$$
>  <Molecule>
[NH-]S(=O)(=O)OC[C@H]1OC2(CCCC2)Oc2ccccc21.[Na+] [Example 65]

>  <melting point>
121.2 to 131.9 °C

$$$$
>  <Molecule>
CC1(C)Oc2ccccc2[C@@H](COS([NH-])(=O)=O)O1.[Na+] (hydrate or solvate) [Example 59]

>  <melting point>
51.2 to 52.2 °C

$$$$
>  <Molecule>
[NH-]S(=O)(=O)OC[C@@H]1OC2(CCCC2)Oc2ccccc21.[Na+] [Example 64]

>  <melting point>
132.9 to 134.9 °C

$$$$
>  <Molecule>
CC1(C)Oc2ccccc2C(COS([NH-])(=O)=O)O1.[Na+] (centres unmarked) (hydrate or solvate) [Example 60]

>  <melting point>
81 to 86 °C

$$$$
>  <Molecule>
[NH-]S(=O)(=O)OCC1OC2(CCCC2)Oc2ccc(Cl)cc21.[Na+] (centres unmarked) [Example 67]

>  <melting point>
68.6 to 72.3 °C

$$$$
